test system: HT-1197 (Bladder Carcinoma); assay: combination Emax (second highest fraction inhibited in the dose matrix, 72 h); higher = more inhibition; extreme values may be limits of the assay
Tag: met if measured combination Emax is not below 0.5, not met if it is.

compound	qualitativeLabel
COc1cccc(OCCCN)c1-c1cc(Nc2cnc(C#N)cn2)n[nH]1 [Prexasertib] + C=CCn1c(=O)c2cnc(Nc3ccc(N4CCN(C)CC4)cc3)nc2n1-c1cccc(C(C)(C)O)n1 [AZD1775] (first compound max 1 µM, partner max 1 µM)	met
Cc1c2c(nn1C)CSCc1cc(n(C)n1)CSc1cc(c3ccccc3c1)OCCCc1c(C(=O)O)n(C)c3c-2c(Cl)ccc13 [AZD5991] + Cc1cc2ncnn2cc1Nc1ncc2c(n1)n(C1CCOCC1)c(=O)n2C [AZD7648] (first compound max 1 µM, 7x7, partner max 10 µM)	not met
COc1nnc2ccc(N3CCC(c4ccc(OCCN5CCN(C)C(=O)[C@H]5C)cc4)CC3)nn12 [AZD5153] + CCN(CCO)CCCOc1ccc2c(Nc3cc(CC(=O)Nc4cccc(F)c4)[nH]n3)ncnc2c1 [AZD2811] (first compound max 1 µM, 7x7, partner max 1 µM)	met
NC1(C(=O)N[C@@H](CCO)c2ccc(Cl)cc2)CCN(c2ncnc3[nH]ccc23)CC1 [Capivasertib] + COc1nnc2ccc(N3CCC(c4ccc(OCCN5CCN(C)C(=O)[C@H]5C)cc4)CC3)nn12 [AZD5153] (first compound max 10 µM, 7x7, partner max 1 µM)	met
COc1nnc2ccc(N3CCC(c4ccc(OCCN5CCN(C)C(=O)[C@H]5C)cc4)CC3)nn12 [AZD5153] + Cc1c2c(nn1C)CSCc1cc(n(C)n1)CSc1cc(c3ccccc3c1)OCCCc1c(C(=O)O)n(C)c3c-2c(Cl)ccc13 [AZD5991] (first compound max 1 µM, 7x7, partner max 1 µM)	met
COc1cccc(OCCCN)c1-c1cc(Nc2cnc(C#N)cn2)n[nH]1 [Prexasertib] + CN(C)CCCOc1ccc(-c2ccc3ncc4c(c3c2)n(C2CCOCC2)c(=O)n4C)cn1 [AZD0156] (first compound max 1 µM, 7x7, partner max 1 µM)	met
CCN(CCO)CCCOc1ccc2c(Nc3cc(CC(=O)Nc4cccc(F)c4)[nH]n3)ncnc2c1 [AZD2811] + C[C@@H]1COCCN1C2=NC(=NC(=C2)C3(CC3)[S@](=N)(=O)C)C4=C5C=CNC5=NC=C4 [AZD6738] (first compound max 1 µM, 7x7, partner max 10 µM)	not met
Cc1c2c(nn1C)CSCc1cc(n(C)n1)CSc1cc(c3ccccc3c1)OCCCc1c(C(=O)O)n(C)c3c-2c(Cl)ccc13 [AZD5991] + Cn1cnc2c(F)c(Nc3ccc(Br)cc3Cl)c(C(=O)NOCCO)cc21 [Selumetinib] (first compound max 1 µM, 7x7, partner max 3 µM)	not met
CC1(C)CCC(CN2CCN(c3ccc(C(=O)NS(=O)(=O)c4ccc(NCC5CCOCC5)c([N+](=O)[O-])c4)c(Oc4cnc5[nH]ccc5c4)c3)CC2)=C(c2ccc(Cl)cc2)C1 [Venetoclax] + COc1cc(Nc2ncc3c(n2)-c2ccc(Cl)cc2C(c2c(F)cccc2OC)=NC3)ccc1C(=O)O [Alisertib] (first compound max 1 µM, 7x7, partner max 10 µM)	not met
Cc1cc2ncnn2cc1Nc1ncc2c(n1)n(C1CCOCC1)c(=O)n2C [AZD7648] + C[C@@H]1COCCN1C2=NC(=NC(=C2)C3(CC3)[S@](=N)(=O)C)C4=C5C=CNC5=NC=C4 [AZD6738] (first compound max 10 µM, 7x7, partner max 10 µM)	not met
Cc1cc2ncnn2cc1Nc1ncc2c(n1)n(C1CCOCC1)c(=O)n2C [AZD7648] + C=CCn1c(=O)c2cnc(Nc3ccc(N4CCN(C)CC4)cc3)nc2n1-c1cccc(C(C)(C)O)n1 [AZD1775] (first compound max 10 µM, partner max 1 µM)	met
Cn1cnc2c(F)c(Nc3ccc(Br)cc3Cl)c(C(=O)NOCCO)cc21 [Selumetinib] + CC(C)n1c(=O)n(C)c2cnc3cc(F)c(-c4ccc(OCCCN5CCCCC5)nc4)cc3c21 [AZD1390] (first compound max 10 µM, 7x7, partner max 0.3 µM)	not met
Cc1cc2ncnn2cc1Nc1ncc2c(n1)n(C1CCOCC1)c(=O)n2C [AZD7648] + CCN(CCO)CCCOc1ccc2c(Nc3cc(CC(=O)Nc4cccc(F)c4)[nH]n3)ncnc2c1 [AZD2811] (first compound max 10 µM, 7x7, partner max 1 µM)	not met
